# Read-out: Interferon-gamma inducible Protein 10 (IP10), CXCL10 (gene 3627)
# Experiment Notes: BSK_BE3C_IP10: BioMAP Diversity Plus: BE3C Assay for Interferon-gamma inducible Protein 10 (IP10) Biomarker Activity (AID 2283034)
# Experimental Context: primary human bronchial epithelial cells; actives raise or lower the signal
Calls of active or inactive are those of the source. How the source made its calls: active means hit-call score of the fitted dose curve at least 0.9, where 1 is the maximum; inactive means score below 0.9.
Your response should consist of one outcome taken from active, inactive

Consider the worked cases shown below.
- Substance Smiles: "COc1cccc([C@H](O)C2CCN(CCc3ccc(F)cc3)CC2)c1OC"
  Class Assignment: "inactive"
- Substance Smiles: "CC[C@@H]1C[C@H](N(Cc2cc(C(F)(F)F)cc(C(F)(F)F)c2)C(C)=O)c2cc(C(F)(F)F)ccc2N1C(=O)OC(C)C"
  Class Assignment: "inactive"
- Substance Smiles: "CCCCCCCCN(C)CCCCCCCC"
  Class Assignment: "inactive"
- Substance Smiles: "Cc1cc(F)ccc1-c1cc(N2CC[C@@H](O)[C@H]2CO)ncc1N(C)C(=O)C(C)(C)c1cc(C(F)(F)F)cc(C(F)(F)F)c1"
  Class Assignment: "active"
- Substance Smiles: "O=C(O)c1ccccc1C(=O)OCc1ccccc1"
  Class Assignment: "inactive"

// param item: Cc1c2ccccc2c(C)c2c1ccc1ccccc12 ; yields the recorded call inactive

What do you get for c1ccc(C[n+]2cccc3ccccc32)cc1 ? active

Can you check CCN(Cc1cccnc1)C(=O)c1cccc(Cl)c1[C@]1(C)C(=O)N(Cc2ccc(OC)cc2OC)c2ccc(Cl)cc21 next? active

These data points were gathered from PubChem BioAssay (EPA / NIEHS).
